molecular target: T1, human CD28 (human, UniProt P10747 19-220, On cells CD28 is a disulfide linked homodimer and a glycoprotein; one copy of the chain is given.); assay: flow cytometry, PE-conjugated antibody on fresh human peripheral blood cells, CD3/CD28 gating
T1 construct: also called T-cell specific surface glycoprotein CD28
T1 sequence (P10747 19-220 limits assumed): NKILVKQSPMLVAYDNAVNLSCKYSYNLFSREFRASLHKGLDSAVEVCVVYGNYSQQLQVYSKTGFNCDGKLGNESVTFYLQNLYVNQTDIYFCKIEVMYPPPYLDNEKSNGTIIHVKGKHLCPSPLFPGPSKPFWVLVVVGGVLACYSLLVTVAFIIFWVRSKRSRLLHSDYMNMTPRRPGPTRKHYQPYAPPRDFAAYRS
MEASURED_PROPERTY: MFI CD28+ population

// solved cases for MFI CD28+ population follow
1) exemplary anti-CD28 antibody AB6 (antibody, V domains shown, Mouse hybridoma monoclonal antibody; Conjugated to PE in the staining assays; also called antibody 6; clone 6) VH: KVQLQQSGAGLVKPGASVKLSCKTSGYTFSDYIINWVKQRSGQGLEWIGWFYPGSGSINYNEKFKDKATLTADKSSSTVYMDLSRLTSEDSAVYFCARREDRGGYDAFDYWGQGTTLTVSS VL: DIQMTQSPASLSVSVGETVTITCRASENIYSNLAWYQQKQGKSPQLLVYAATKLADGVPSRFSGSGSGTQYSLRINSLQSEDFGSYYCQHFWGTPWTFGGGTKLEIK; 15500
2) exemplary anti-CD28 antibody AB8 (antibody, V domains shown, Mouse hybridoma monoclonal antibody; Conjugated to PE in the staining assays; also called antibody 8; clone 8) VH: EVKLVESGGGLVQPGGSLKLSCAASGFTFSSYTMSWVRQTPEKRLEWVAYISNGGGTTYYPDTVKGRFTISRDNAKNTLYLQMSSLKSEDTAVYYCARHRPYDYDVLDYWGQGTTLTVSS VL: DIVMTQSQKFMSTSVGDRVSITCKASQIVGTDVAWYQQKPGQSPKILIFSASNRYTGVPDRFTGSGSGTDFTLTISNMQSEDLADYFCHQYSRYPYTFGGGTKLEIK; 5210

Next:
So for exemplary anti-CD28 antibody AB4 (antibody, V domains shown, Mouse hybridoma monoclonal antibody; Conjugated to PE in the staining assays; also called antibody 4; clone 4) VH: EVQLQQSGPELEKPGASVKMSCKASGYSFTDYNMNWVKQSNGKSLEWIGIIDPYYGATTYNQRFKGKATLTVDKSSSTAYMQLKSLTSEDSAVYYCARFGFYGAMDYWGQGISVTVSS VL: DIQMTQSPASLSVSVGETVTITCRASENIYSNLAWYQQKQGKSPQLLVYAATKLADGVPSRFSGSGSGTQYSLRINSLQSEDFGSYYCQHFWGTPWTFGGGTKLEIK , the logged MFI CD28+ population turned out to be 11900
